Entry source: PubChem BioAssay (NCI)

Below: a set of entries, each annotated with reported growth.
- Test system: EKVX NSCLC
- test protocol: NCI-60 one-dose screen, 48 h (100 = growth as untreated, 0 = no growth, -100 = all killed)
- measurement conditions: 10 µM unless noted
Compounds without any hit were thinned out: in the full panel of roughly 83,000, 20% have a hit.
Reply numerically in %, unit not repeated.

Can you share its growth? I mean this compound: `C[N+](C)(C/C=C/c1ccccc1)Cc1ccccc1`
92.7

Can you share its growth? I mean this compound: `C#CCOc1ccc2ncnc(Nc3cccc(NC(=O)CCl)c3)c2c1`
92.9

Can you share its growth? I mean this compound: O=C1CCC(C(=O)NN(c2ccccc2)c2ccccc2)N1 (centres undefined)
102

Can you share its growth? I mean this compound: `O=C1Nc2ccccc2/C1=C/c1cn(C[C@@H](O)Cn2c3ccccc3c(=O)c3ccccc32)c2ccccc12`
73.1
